Reference for the values: patent US11203601B2

- TGT: CDK2/CycA2 (Homo sapiens (Human), UniProt P24941)
- METHOD_NOTES: Carna kinome panel
OBSERVATION_TYPE: pIC50
pIC50 (log units): -log10 of the concentration in mol/L.

[in] State the recorded pIC50 for this entry: CCC1(c2ccccc2)C2=C(CC(C)(C)CC2=O)Nc2ncsc21 (stereo not shown)
[out] 5.16

---

- TGT: GSK3α (Homo sapiens (Human))
- Sequence (P49840 whole entry): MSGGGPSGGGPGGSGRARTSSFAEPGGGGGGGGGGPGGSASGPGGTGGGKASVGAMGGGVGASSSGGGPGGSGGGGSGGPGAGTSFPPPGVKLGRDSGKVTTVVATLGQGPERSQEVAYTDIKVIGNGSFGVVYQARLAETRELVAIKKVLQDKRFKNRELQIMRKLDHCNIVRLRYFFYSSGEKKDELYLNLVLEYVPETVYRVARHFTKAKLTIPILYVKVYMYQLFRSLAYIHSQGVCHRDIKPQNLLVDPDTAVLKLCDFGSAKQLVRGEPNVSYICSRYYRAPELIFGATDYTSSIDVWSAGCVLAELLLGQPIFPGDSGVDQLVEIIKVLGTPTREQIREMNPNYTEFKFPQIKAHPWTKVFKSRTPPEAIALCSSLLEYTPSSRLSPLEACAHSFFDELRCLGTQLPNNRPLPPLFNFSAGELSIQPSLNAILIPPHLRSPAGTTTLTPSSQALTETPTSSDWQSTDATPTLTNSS
- METHOD_NOTES: biochemical
OBSERVATION_TYPE: IC50
Quote the value and follow it with the unit of measurement.

[in] Test system GSK3α (Homo sapiens (Human)); read-out IC50; what value for CCC1(c2ccccc2)C2=C(CC(C)(C)CC2=O)Nc2ncsc21 (stereo not shown) ?
[out] 31.3 nM
